Hi there, I'd appreciate the recorded log10 of IC50 for every entry that follows.
# TARGET_SYSTEM: Porcine pancreatic α-amylase (PPA) (Sus scrofa, UniProt P00690)
# Construct: purchased Sigma Aldrich Co. (St Louis, MO, USA)
# Sequence (P00690 16-511): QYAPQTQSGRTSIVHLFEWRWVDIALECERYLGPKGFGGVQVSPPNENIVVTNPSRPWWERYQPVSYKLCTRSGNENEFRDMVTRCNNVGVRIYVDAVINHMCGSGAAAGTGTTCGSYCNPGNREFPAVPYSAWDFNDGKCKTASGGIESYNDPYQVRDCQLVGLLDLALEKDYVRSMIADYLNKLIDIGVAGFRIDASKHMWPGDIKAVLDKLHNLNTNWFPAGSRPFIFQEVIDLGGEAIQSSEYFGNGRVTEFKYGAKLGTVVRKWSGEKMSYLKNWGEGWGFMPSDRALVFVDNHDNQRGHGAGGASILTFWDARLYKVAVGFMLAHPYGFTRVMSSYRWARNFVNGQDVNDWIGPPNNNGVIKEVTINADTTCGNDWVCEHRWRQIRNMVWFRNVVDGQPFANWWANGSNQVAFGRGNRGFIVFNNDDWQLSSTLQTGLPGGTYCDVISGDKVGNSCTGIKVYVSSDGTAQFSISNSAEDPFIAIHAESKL
# ASSAY_REMARKS: PPA inhibition assay
# Format: biochemical
# DETAILS: read-out: IC50 Values Against PPA
Answers are given as log10 of IC50 in nM.

# annotated cases, reported log10 of IC50 shown
CCC(=O)OC[C@H]1O[C@H](O[C@H]2[C@H](O)[C@@H](O)[C@@H](O[C@H]3[C@H](O)[C@@H](O)C(O)O[C@@H]3CO)O[C@@H]2CO)[C@H](O)[C@@H](O)[C@@H]1O[C@H]1O[C@H](C)[C@@H](N[C@H]2C=C(CO)[C@@H](O[C@H]3O[C@H](CO)[C@@H](O[C@H]4O[C@H](C)[C@@H](N[C@H]5C=C(CO)[C@@H](O)[C@H](O)[C@H]5O)[C@H](O)[C@H]4O)[C@H](O)[C@H]3O)[C@H](O)[C@H]2O)[C@H](O)[C@H]1O (stereo partly drawn) | 1.90
CCCC(=O)OC[C@H]1O[C@H](O[C@H]2[C@H](O)[C@@H](O)[C@@H](O[C@H]3[C@H](O)[C@@H](O)[C@@H](O[C@H]4[C@H](O)[C@@H](O)C(O)O[C@@H]4CO)O[C@@H]3CO)O[C@@H]2CO)[C@H](O)[C@@H](O)[C@@H]1O[C@H]1O[C@H](C)[C@@H](N[C@H]2C=C(CO)[C@@H](O)[C@H](O)[C@H]2O)[C@H](O)[C@H]1O (stereo partly drawn) | 2.60
CC(C)CC(=O)OC[C@H]1O[C@H](O[C@H]2[C@H](O)[C@@H](O)[C@@H](O[C@H]3[C@H](O)[C@@H](O)C(O)O[C@@H]3CO)O[C@@H]2CO)[C@H](O)[C@@H](O)[C@@H]1O[C@H]1O[C@H](C)[C@@H](N[C@H]2C=C(CO)[C@@H](O[C@H]3O[C@H](CO)[C@@H](O[C@H]4O[C@H](C)[C@@H](N[C@H]5C=C(CO)[C@@H](O)[C@H](O)[C@H]5O)[C@H](O)[C@H]4O)[C@H](O)[C@H]3O)[C@H](O)[C@H]2O)[C@H](O)[C@H]1O (stereo partly drawn) | 1.96
C[C@H]1O[C@H](O[C@H]2[C@H](O)[C@@H](O)[C@@H](O[C@H]3[C@H](O)[C@@H](O)[C@@H](O[C@H]4[C@H](O)[C@@H](O)C(O)O[C@@H]4CO)O[C@@H]3CO)O[C@@H]2CO)[C@H](O)[C@@H](O)[C@@H]1N[C@H]1C=C(CO)[C@@H](O[C@H]2O[C@H](CO)[C@@H](O[C@H]3O[C@H](C)[C@@H](N[C@H]4C=C(CO)[C@@H](O)[C@H](O)[C@H]4O)[C@H](O)[C@H]3O)[C@H](O)[C@H]2O)[C@H](O)[C@H]1O (stereo partly drawn) | 1.92
CC1OC(OC2C(CO)OC(OC3C(CO)=CC(NC4C(C)OC(OC5C(CO)OC(OC6C(CO)OC(OC7C(CO)OC(OC8C(CO)OC(O)C(O)C8O)C(O)C7O)C(O)C6O)C(O)C5O)C(O)C4O)C(O)C3O)C(O)C2O)C(O)C(O)C1NC1C=C(CO)C(O)C(O)C1O (stereo not drawn) | 1.48

Task: Look up log10 of IC50: C[C@H]1O[C@H](O[C@H]2[C@H](O)[C@@H](O)[C@@H](O[C@H]3[C@H](O)[C@@H](O)[C@@H](O[C@H]4[C@H](O)[C@@H](O)[C@@H](O[C@H]5[C@H](O)[C@@H](O)C(O)O[C@@H]5CO)O[C@@H]4CO)O[C@@H]3CO)O[C@@H]2CO)[C@H](O)[C@@H](O)[C@@H]1N[C@H]1C=C(CO)[C@@H](O)[C@H](O)[C@H]1O (stereo partly drawn)
Output: 2.47
